# T/C values compiled below
Test system: L1210 leukemia ip in BDF1 mice, survival T/C
Assay: NCI In Vivo Anticancer Drug Screen. Data for tumor model L1210 Leukemia (intraperitoneal) in B6D2F1 (BDF1) mice
Settings: endpoint: mean survival time; dose: 100.0 mg/kg/injection; schedule: Q01DX009 (ip); vehicle: Klucel (hydroxypropylcellulose) (HPC); higher = longer survival
Experimental: The antitumor activity of compounds was measured in mice bearing transplantable tumors. Survival or tumor size were measured and the results are expressed as the measurement made in the treated group (T) divided by the measurement made in the vehicle treated control group (C). The tumor model used in this assay is L1210 Leukemia (intraperitoneal) in B6D2F1 (BDF1) mice
Toxic doses and inconclusive results are not listed.

Memo: Cc1cccc(NC(=O)C(C)(C)C)c1C , reported T/C: 106 % of control

Memo: CC1(C(Cl)(Cl)Cl)C=CC(=O)C(Cl)=C1 (configuration not stated) , reported T/C: 100 % of control

Memo: CN(C)C(=O)C1(c2ccc(Cl)cc2)CCN(CCCC(=O)c2ccc(F)cc2)CC1 , reported T/C: 111 % of control

Memo: Nc1ccccc1SC(CC(=O)c1ccccc1)c1ccc([N+](=O)[O-])cc1 (configuration not stated) , reported T/C: 97 % of control
